- System: MC3T3 cells
- Measurement Protocol: Hoechst staining
- Format: cell-based
- Measurement Context: subconfluent MC3T3 cells, 100μM, 3 days

>  <Chemical Smiles>
CCC(CC)n1ccc2c(C(=O)NCc3c(C)cc(C)[nH]c3=O)cc(C#N)cc21

>  <cell numbers (Hoechst staining)>
not observed

$$$$
>  <Chemical Smiles>
Cc1cc(C)c(CN2CCc3c(Cl)cc(-c4c(C)noc4C)c(Cl)c3C2=O)c(=O)[nH]1

>  <cell numbers (Hoechst staining)>
significant reductions

$$$$
>  <Chemical Smiles>
CCS(=O)(=O)N1CCC([C@@H](C)n2c(C)c(C(=O)NCc3c(OC)cc(C)[nH]c3=O)c3ccccc32)CC1

>  <cell numbers (Hoechst staining)>
not observed

$$$$
>  <Chemical Smiles>
CCN(c1cc(-c2ccc(CN3CCOCC3)cc2)cc(C(=O)NCc2c(C)cc(C)[nH]c2=O)c1C)C1CCOCC1

>  <cell numbers (Hoechst staining)>
significant reductions

$$$$
>  <Chemical Smiles>
CCCc1cc(C)[nH]c(=O)c1CNC(=O)c1cc(-c2ccc(N3CCN(C(C)C)CC3)nc2)cc2c1cnn2C(C)C

>  <cell numbers (Hoechst staining)>
significant reductions

$$$$
>  <Chemical Smiles>
CC[C@H](C)n1cc(C)c2c(C(=O)NCc3c(C)cc(C)[nH]c3=O)cc(-c3ccc(N4CCNCC4)nc3)cc21

>  <cell numbers (Hoechst staining)>
significant reductions

$$$$
>  <Chemical Smiles>
Cc1cc(C)c(CNC(=O)c2cc(-c3ccc(N4CCN(C)CC4)nc3)cc3c2c(C)cn3C(C)C)c(=O)[nH]1

>  <cell numbers (Hoechst staining)>
significant reductions

$$$$

Data provenance: paper PMC8217219
